Consider the following compounds and their measured IC50 readings.
- Tested on: Rabbit Platelet
- test: PAF-induced platelet secretion ([3H]serotonin)
- Assay type: cell-based
- conditions_used: Oryctolagus cuniculus, washed [3H]serotonin-labeled rabbit platelets, 60 sec preincubation, PAF 0.2 nM to 0.2 μM, secretion at 60 sec
# number only, unit nM dropped from output

Example entries and their recorded answers appear below.
{"compound": "O=C(c1ccc(Cn2ccc3ncnc-3c2)cc1)C(C1CCCCC1)C1CCCC1 (stereo not shown)", "IC50, nM": 89}
{"compound": "C=CCC(C(=O)c1ccc(Cn2ccc3ncnc-3c2)cc1)C1CCCCC1 (stereo not shown)", "IC50, nM": 105}
{"compound": "O=C(CC1CCCCC1)c1ccc(Cn2ccc3ncnc-3c2)cc1", "IC50, nM": 131}

Continue with the compound presented below.
Form: item O=C(CC1CCCC1)c1ccc(Cn2ccc3ncnc-3c2)cc1 ; test system Rabbit Platelet; IC50: 379
